Sourced from ChEMBL document CHEMBL6177981

# Protocol: Tmax in Sprague-Dawley rat at 10 mg/kg, IG measured after 24 hrs by LC-MS/MS analysis
# Assay type: ADME, organism-based
# Condition Description: in vivo, po
Quantity Measured: Tmax (h)
Dear colleague, please return just the value in h, with no unit written.

Q: Query: Tmax; subject: Cn1ccc(-c2ccc(NC(=O)[C@]34CCC(C)(C)C[C@H]3[C@H]3C(=O)C=C5[C@@]6(C)C=C(C#N)C(=O)C(C)(C)[C@@H]6CC[C@@]5(C)[C@]3(C)CC4)cc2)n1
Result: 14

====

# Protocol: AUC (0 to 24 hrs) in Sprague-Dawley rat at 2 mg/kg, iv measured after 24 hrs by LC-MS/MS analysis
# Format: ADME, organism-based
# Condition Description: in vivo
Quantity Measured: AUC(0-t) at 24 h (ng·h/mL)
# unit: ng·h/mL | format: bare number

Q: Returns the measured AUC(0-t) at 24 h for the input compound. Input: Cn1ccc(-c2ccc(NC(=O)[C@]34CCC(C)(C)C[C@H]3[C@H]3C(=O)C=C5[C@@]6(C)C=C(C#N)C(=O)C(C)(C)[C@@H]6CC[C@@]5(C)[C@]3(C)CC4)cc2)n1
Result: 4640

====

# Target Or System: Heat shock protein HSP 90-alpha (Homo sapiens)
# Protocol: Binding affinity to N-terminal 6His/SUMO-tagged recombinant human HS90AA1 assessed as dissociation constant incubated for 30 mins by MST analysis
Quantity Measured: Kd (nM)
Numeric only. Scale: nM

Q: Please give the measured Kd for this molecule: Cn1ccc(-c2ccc(NC(=O)[C@]34CCC(C)(C)C[C@H]3[C@H]3C(=O)C=C5[C@@]6(C)C=C(C#N)C(=O)C(C)(C)[C@@H]6CC[C@@]5(C)[C@]3(C)CC4)cc2)n1
Result: 185

====

# Protocol: Cmax in Sprague-Dawley rat at 10 mg/kg, IG measured after 24 hrs by LC-MS/MS analysis
# Assay type: ADME, organism-based
# Condition Description: in vivo, po
Quantity Measured: Cmax
Report the figure along with its unit, number first.

Q: Cmax for Cn1ccc(-c2ccc(NC(=O)[C@]34CCC(C)(C)C[C@H]3[C@H]3C(=O)C=C5[C@@]6(C)C=C(C#N)C(=O)C(C)(C)[C@@H]6CC[C@@]5(C)[C@]3(C)CC4)cc2)n1 ?
Result: 65.1 ng/mL

====

# Protocol: Cmax in Sprague-Dawley rat at 2 mg/kg, iv measured after 24 hrs by LC-MS/MS analysis
# Type: ADME, organism-based
# Condition Description: in vivo
Quantity Measured: Cmax (ng/mL)
Field format: number, assumed ng/mL, no unit text.

Q: Report Cmax for Cn1ccc(-c2ccc(NC(=O)[C@]34CCC(C)(C)C[C@H]3[C@H]3C(=O)C=C5[C@@]6(C)C=C(C#N)C(=O)C(C)(C)[C@@H]6CC[C@@]5(C)[C@]3(C)CC4)cc2)n1 please.
Result: 1040

====

# System: L929
# Protocol: Anti-necroptotic activity in TZ-induced mouse L929 cells assessed as increase in cell viability preincubated with Z-VAD-FMK followed by mTNFalpha stimulation for 4 hrs and measured after compound addition by CellTiter-Lumi luminescent cell viability assay
# Format: functional, cell-based
EC50 reference

Q: Quick one: EC50 of CC1(C)CC[C@]2(C(=O)Nc3ccc4oncc4c3)CC[C@]3(C)[C@H](C(=O)C=C4[C@@]5(C)C=C(C#N)C(=O)C(C)(C)[C@@H]5CC[C@]43C)[C@@H]2C1 ?
Result: > 10 µM

Q: Also check CC1(C)CC[C@]2(C(=O)Nc3ccc4occc4c3)CC[C@]3(C)[C@H](C(=O)C=C4[C@@]5(C)C=C(C#N)C(=O)C(C)(C)[C@@H]5CC[C@]43C)[C@@H]2C1
Result: > 10 µM

Q: Also need CC1(C)CC[C@]2(C(=O)N3Cc4ccccc4C3)CC[C@]3(C)[C@H](C(=O)C=C4[C@@]5(C)C=C(C#N)C(=O)C(C)(C)[C@@H]5CC[C@]43C)[C@@H]2C1 , thanks.
Result: > 10 µM

====

# System: HT-29
# Protocol: Anti-necroptotic activity in TSZ-induced human HT-29 cells assessed as increase in cell viability preincubated with Z-VAD-FMK and SM164 for 30 mins followed by TNFalpha stimulation for 12 hrs and measured after compound addition by CellTiter-Lumi luminescent cell viability assay
# Type: functional, cell-based
Quantity Measured: EC50

Some solved entries appear below for comparison.
* CC1(C)CC[C@]2(C(=O)O)[C@H](O)C[C@]3(C)C(=CC[C@@H]4[C@@]5(C)CC[C@H](O)C(C)(C)[C@@H]5CC[C@]43C)[C@@H]2C1 | > 10 µM
* CC1(C)CC[C@]2(C(=O)O)CC[C@]3(C)C(=CC[C@@H]4[C@@]5(C)CC[C@H](O)C(C)(C)[C@@H]5CC[C@]43C)[C@@H]2C1 | > 10 µM
* COC(=O)[C@]12CCC(C)(C)C[C@H]1[C@H]1C(=O)C=C3[C@@]4(C)C5NC5C(=O)C(C)(C)[C@@H]4CC[C@@]3(C)[C@]1(C)CC2 (stereo not given in full) | > 10 µM
* COC(=O)[C@]12CCC(C)(C)C[C@H]1[C@H]1C(=O)C=C3[C@@]4(C)C5C(C(=O)C(C)(C)[C@@H]4CC[C@@]3(C)[C@]1(C)CC2)N5CC#N (stereo not given in full) | > 10 µM

Q: I have this compound here, CC1(C)CC[C@]2(C(=O)n3ncc4ccccc43)CC[C@]3(C)[C@H](C(=O)C=C4[C@@]5(C)C=C(C#N)C(=O)C(C)(C)[C@@H]5CC[C@]43C)[C@@H]2C1 , and I need its recorded EC50.
Result: > 10 µM
